# Test system: Phosphatidylinositol 4,5-bisphosphate 3-kinase catalytic subunit alpha isoform (Homo sapiens, UniProt P42336)
# Sequence (P42336 whole entry, canonical isoform): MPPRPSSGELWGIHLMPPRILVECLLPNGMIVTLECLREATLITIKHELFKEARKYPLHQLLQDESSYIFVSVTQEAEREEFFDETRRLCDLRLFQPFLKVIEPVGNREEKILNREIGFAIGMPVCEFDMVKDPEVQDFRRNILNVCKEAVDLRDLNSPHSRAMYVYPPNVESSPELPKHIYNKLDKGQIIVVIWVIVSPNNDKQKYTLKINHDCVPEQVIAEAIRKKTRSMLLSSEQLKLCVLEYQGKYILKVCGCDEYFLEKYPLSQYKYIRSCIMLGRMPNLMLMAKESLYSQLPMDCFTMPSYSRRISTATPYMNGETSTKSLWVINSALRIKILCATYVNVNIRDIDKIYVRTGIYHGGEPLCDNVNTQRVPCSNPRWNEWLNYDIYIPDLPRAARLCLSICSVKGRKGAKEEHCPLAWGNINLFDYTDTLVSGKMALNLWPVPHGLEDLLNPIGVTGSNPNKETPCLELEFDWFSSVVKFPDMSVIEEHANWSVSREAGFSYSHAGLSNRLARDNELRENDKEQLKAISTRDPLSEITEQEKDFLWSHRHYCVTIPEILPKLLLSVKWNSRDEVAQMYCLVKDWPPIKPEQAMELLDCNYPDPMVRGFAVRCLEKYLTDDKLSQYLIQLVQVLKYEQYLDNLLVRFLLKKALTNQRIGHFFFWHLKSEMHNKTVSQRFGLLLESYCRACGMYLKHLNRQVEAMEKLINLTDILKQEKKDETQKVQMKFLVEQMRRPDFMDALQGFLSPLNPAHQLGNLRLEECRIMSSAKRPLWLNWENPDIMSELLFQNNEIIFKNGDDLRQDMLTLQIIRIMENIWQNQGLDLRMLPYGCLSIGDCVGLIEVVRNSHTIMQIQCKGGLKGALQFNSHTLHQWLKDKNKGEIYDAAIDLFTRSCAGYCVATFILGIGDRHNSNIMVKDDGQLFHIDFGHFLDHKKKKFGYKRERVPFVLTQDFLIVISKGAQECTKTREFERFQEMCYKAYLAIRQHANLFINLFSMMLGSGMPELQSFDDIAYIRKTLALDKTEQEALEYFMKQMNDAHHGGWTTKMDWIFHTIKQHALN
# Measurement notes: Inhibition Assay: Several TP Scaffold compounds were tested for inhibition activity against isoforms of PI3K (alpha, beta, gamma, and delta isoforms) and the bromodomain protein BRD4 at regions 1 (BRD4-1) and 2 (BRD4-2).
Assay endpoint: IC50 (µM)
Return type: number; implicit unit µM.

Inquiry: Request the reported IC50 associated with CCOC(=O)c1ccc(-c2csc3c(=O)cc(N4CCSCC4)oc23)cc1
Reply text: 29.1

----------
# Test system: Bromodomain-containing protein 4 (Homo sapiens)
# Measurement notes: Inhibition Assay: Several TP Scaffold compounds were tested for inhibition activity against isoforms of PI3K (alpha, beta, gamma, and delta isoforms) and the bromodomain protein BRD4 at regions 1 (BRD4-1) and 2 (BRD4-2).
Assay endpoint: pIC50
Please treat pIC50 as minus the base-10 logarithm of the molar concentration.

Inquiry: Request the reported pIC50 associated with CCOC(=O)c1ccc(-c2csc3c(=O)cc(N4CCSCC4)oc23)cc1
Reply text: 5.99
